# assayComment: CCTE_Harrill_HTTr_Apoptosis_MCF7: CCTE's 6-hour Apoptosis Assessment for the High-Throughput Transcriptomics (HTTr) Platform, in MCF-7 cells cultured in DMEM + 10% fetal bovine serum, Harrill Lab (AID 2284011)
Active and inactive are the calls of the source. How the source made its calls: active means hit-call score of the fitted dose curve at least 0.9, where 1 is the maximum; inactive means score below 0.9.
Parameter call: string, one of true (1) = active, false (0) = inactive

Below are worked cases with known answers.
>>> df
                    compound  assignedclass
0                   CCC(=O)O      false (0)
1  CNNCc1ccc(C(=O)NC(C)C)cc1      false (0)
2                    CCCCC=O      false (0)
3       Nc1ccc(O)c(C(=O)O)c1      false (0)
4    CC1=NN(c2ccccc2)C(=O)C1      false (0)

Please let me know the test result on file for `CCCCCCCCCCCCOC(=O)c1cc(O)c(O)c(O)c1` .
false (0)

----------
# assayComment: CEETOX_H295R_11DCORT: CeeTox H295R High-throughput Steroidogenesis Assay for 11-Deoxycortisol (11DCORT) (AID 2283432)
# details: actives raise or lower the signal
# Protocol: CEETOX_H295R is a cell-based, multiplexed-readout assay that uses H295R, a human adrenal gland cell line, with measurements taken at 48 hours after chemical dosing in a 96-well plate.CEETOX_H295R_11DCORT is one of 23 assay component(s) measured or calculated from the CEETOX_H295R assay. […] This assay endpoint, CEETOX_H295R_11DCORT, was analyzed with bidirectional fitting relative to DMSO as the negative control and baseline of activity. […]
Activity calls are given as the source filed them. How the source made its calls: active means hit-call score of the fitted dose curve at least 0.9, where 1 is the maximum; inactive means score below 0.9.
attributeMeasured: outcome

               smilestext  recordedvalue
0  CC(C)(C)c1ccc(O)c(O)c1       inactive
1              c1cc[nH]c1       inactive
2        CCCCCc1ccc(O)cc1       inactive

----------
# assayComment: ATG_Oct_MLP_CIS: Attagene CIS-FACTORIAL HepG2 Assay for human Octamer-Binding Transcription Factor (Oct) (AID 2282993)
# details: HepG2 Attagene cis-factorial Oct reporter, mRNA; actives raise or lower the signal
Calls of active or inactive are those of the source. How the source made its calls: active means hit-call score of the fitted dose curve at least 0.9, where 1 is the maximum; inactive means score below 0.9.
Parameter call: string, one of active, inactive

>>> print(df.to_string())
                                   molecule  assignedclass
0                     OCCN1CN(CCO)CN(CCO)C1         active
1  C[C@]12CC[C@@H]3c4ccc(O)cc4CC[C@H]3[C@@H]1C[C@@H](O)[C@@H]2O       inactive
2                  Cc1ccc(C(=O)c2ccccc2)cc1       inactive
3                     Cc1cccc2c1ccc1ccccc12       inactive
4                        Oc1cccc2c(O)cccc12       inactive
5                           CCCCCCCCCCCCCCC       inactive
6          CC1CCC(CO)CC1 (stereo not given)       inactive
7        NNc1nc(-c2ccc([N+](=O)[O-])cc2)cs1       inactive

Please let me know the test result on file for `CCO[Si](C)(C)OCC` .
inactive

Please let me know the test result on file for `CCCCCCC(C)(C)C(=O)O` .
inactive

Please let me know the test result on file for `OCC(CO)(CBr)CBr` .
inactive

Please let me know the test result on file for CCC1CO1 (stereo not given) .
inactive

Please let me know the test result on file for CC1CNCC(C)O1 (stereo not given) .
inactive

Please let me know the test result on file for CC1COCc2cc3c(cc21)C(C)(C)C(C)C3(C)C (stereo not given) .
inactive

Please let me know the test result on file for `Clc1ccc2c(Cl)ccnc2c1` .
inactive

----------
# targetDesc: Signal transducer and activator of transcription 3 (Homo sapiens) (UniProt P40763)
# Sequence (P40763 whole entry, looked up): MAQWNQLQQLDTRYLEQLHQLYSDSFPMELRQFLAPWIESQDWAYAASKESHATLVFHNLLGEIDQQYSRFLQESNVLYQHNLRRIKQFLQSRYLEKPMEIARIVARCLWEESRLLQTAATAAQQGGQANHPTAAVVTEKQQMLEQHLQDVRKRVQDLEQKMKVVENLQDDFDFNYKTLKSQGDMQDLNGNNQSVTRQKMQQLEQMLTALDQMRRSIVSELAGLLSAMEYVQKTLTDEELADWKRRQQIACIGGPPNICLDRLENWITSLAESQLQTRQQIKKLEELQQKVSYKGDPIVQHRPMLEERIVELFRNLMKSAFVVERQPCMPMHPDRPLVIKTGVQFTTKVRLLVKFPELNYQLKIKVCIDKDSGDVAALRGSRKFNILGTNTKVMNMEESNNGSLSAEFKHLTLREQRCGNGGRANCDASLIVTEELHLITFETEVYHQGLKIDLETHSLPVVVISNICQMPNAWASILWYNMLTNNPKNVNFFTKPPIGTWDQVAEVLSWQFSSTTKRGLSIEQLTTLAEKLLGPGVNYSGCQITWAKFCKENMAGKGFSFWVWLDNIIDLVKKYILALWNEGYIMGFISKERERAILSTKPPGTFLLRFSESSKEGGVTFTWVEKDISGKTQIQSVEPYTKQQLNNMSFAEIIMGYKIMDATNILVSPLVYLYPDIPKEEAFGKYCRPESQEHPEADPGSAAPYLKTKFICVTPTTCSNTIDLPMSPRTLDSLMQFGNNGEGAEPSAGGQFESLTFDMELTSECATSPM
# assayComment: ATG_STAT3_CIS: Attagene CIS-FACTORIAL HepG2 Assay for human Signal Transducer and Activator of Transcription 3 (STAT3) (AID 2282963)
# details: HepG2, Attagene cis-factorial STAT3 reporter transcription; actives raise or lower the signal
Active and inactive are the calls of the source. How the source made its calls: active means hit-call score of the fitted dose curve at least 0.9, where 1 is the maximum; inactive means score below 0.9.
attributeMeasured: outcome

Worked cases, answers included:
>>> df
                                   compound  recordedvalue
0  CCOC(=O)CN[C@@H](C(=O)N1CC[C@H]1C(=O)NCc1ccc(/C(N)=N/O)cc1)C1CCCCC1       inactive
1  COCC1CCC(CO)CC1 (configuration not stated)       inactive
2                           CC(C)CCOCCC(C)C       inactive
3  O=C1OC2(c3ccccc31)c1cc(I)c(O)c(I)c1Oc1c2cc(I)c(O)c1I       inactive

# return outcome for each item in the list
1. COc1cccc(O)c1
2. CN(Cc1cnc2nc(N)nc(N)c2n1)c1ccc(C(=O)N[C@@H](CCC(=O)O)C(=O)O)cc1
3. CC1CCC(CO)CC1 (configuration not stated)

1. inactive
2. inactive
3. inactive

----------
# Read-out: Cytochrome P450 4A22 (Homo sapiens)
# assayComment: LTEA_HepaRG_CYP4A22: Life Technologies and Expression Analysis (LTEA) Assay for Cytochrome P450 4A22 (CYP4A22) using HepaRG (AID 2283495)
# details: mRNA level, 48 h; actives raise or lower the signal
Active and inactive are the calls of the source. The calls were made as follows: active = hit-call score of the fitted dose curve at least 0.9, where 1 is the maximum; inactive = score below 0.9.
Parameter call: string, one of True (active), False (inactive)

>>> df
                                 smilestext  assignedclass
0                        CC(=O)Nc1ccc(O)cc1          False
1  O=C(CCCN1CCC(O)(c2ccc(Cl)cc2)CC1)c1ccc(F)cc1           True
2                                   CCCCC=O          False

Please let me know the test result on file for `Cc1[nH]nc2c1N=C(c1ccccc1Cl)c1cc([N+](=O)[O-])ccc1N2` .
True

Please let me know the test result on file for `N=C(N)c1ccc(OCCCCCOc2ccc(C(=N)N)cc2)cc1` .
True

Please let me know the test result on file for `CCCCCCCCCCCCCCC` .
False

Please let me know the test result on file for `OCC(CO)(CBr)CBr` .
False

Please let me know the test result on file for `CN(Cc1cnc2nc(N)nc(N)c2n1)c1ccc(C(=O)N[C@@H](CCC(=O)O)C(=O)O)cc1` .
False

----------
# assayComment: BSK_LPS_PGE2: BioMAP Diversity Plus: LPS Assay for Prostaglandin E2 (PGE2) Biomarker Activity (AID 2283082)
# details: primary human HUVEC with PBMC; actives raise or lower the signal
Active and inactive are the calls of the source. How the source made its calls: active means hit-call score of the fitted dose curve at least 0.9, where 1 is the maximum; inactive means score below 0.9.
Parameter call: string, one of t (active), f (inactive)

Below are worked cases with known answers.
In [3]: df
Out[3]:
                                   compound  assignedclass
0  C=CC(C)(CCC=C(C)C)OC(C)=O (stereo unspecified)              f
1  CN(C)c1ccc(C(=C2C=CC(=[N+](C)C)C=C2)c2ccccc2)cc1              t
2                           O=C(NO)c1ccccc1              f
3  O=S(=O)(O)C(F)(F)C(F)(F)C(F)(F)C(F)(F)C(F)(F)C(F)(F)C(F)(F)C(F)(F)C(F)(F)C(F)(F)F              f

Please let me know the test result on file for `Cc1ccc(N=Nc2c(O)ccc3ccccc23)c(C)c1` .
f

Please let me know the test result on file for `NC(=NCCCCCCN=C(N)/N=C(\N)Nc1ccc(Cl)cc1)/N=C(\N)Nc1ccc(Cl)cc1` .
f

----------
# assayComment: TOX21_p53_BLA_p3_viability: Viability Assessment in the Tox21 HCT-116 p53 Agonism Beta-lactamase Assay, Phase 3 (AID 2283593);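 further: cells exposed to compound for 16 h before reading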
Records with an inconclusive call do not appear. Activity calls are given as the source filed them. How the source made its calls: active means hit-call score of the fitted dose curve at least 0.9, where 1 is the maximum; inconclusive means response in the unintended direction; inactive means score below 0.9.
attributeMeasured: AC50

Worked cases, answers included:
In [3]: df
Out[3]:
                                   molecule  attributemeasured      recordedvalue
0       CC(O)COc1ccccc1 (centres undefined)               AC50           inactive
1   O=C(Nc1ccc(Cl)c(Cl)c1)c1cc(Cl)cc(Cl)c1O               AC50  0.989 µM (active)
2                           O=C(NO)c1ccccc1               AC50           inactive
3                    CC(C)(C)c1ccc(O)c(O)c1               AC50           inactive
4               CN(C)CCOC(c1ccccc1)c1ccccc1               AC50           inactive
5  CCCCCC(C)OC(=O)COc1ccc(Cl)c2cccnc12 (centres undefined)               AC50           inactive
6                                      CC=O               AC50   86.1 µM (active)
7                 COc1cc([N+](=O)[O-])ccc1N               AC50           inactive
8                   CC1=NN(c2ccccc2)C(=O)C1               AC50           inactive
9                 CCCCCCCCCCCC(=O)NCCCN(C)C               AC50   47.3 µM (active)

# return AC50 for each item in the list
1. Cc1cc(=O)oc2cc(O)ccc12
2. NNc1nc(-c2ccc([N+](=O)[O-])cc2)cs1
3. COc1ccccc1NC(=O)c1cc2ccccc2cc1O
4. c1ccc(CNc2ncnc3c2ncn3C2CCCCO2)cc1 (centres undefined)
5. O=C(c1cc(O)c(O)c(O)c1)c1ccc(O)c(O)c1O

inactive
inactive
inactive
inactive
inactive

# return AC50 for each item in the list
1. O=C(Nc1cccc([N+](=O)[O-])c1)c1cc2ccccc2cc1O
2. CCC(=O)C=Cc1ccc(OC)cc1
3. NS(=O)(=O)O
4. CC(C)(C)C1CCCCC1O (centres undefined)
5. CCOCCOCC
6. O=C1OC(=O)c2cc(-c3ccc4c(c3)C(=O)OC4=O)ccc21

["inactive", "inactive", "inactive", "inactive", "inactive", "inactive"]

# return AC50 for each item in the list
1. Cc1ccc(S(=O)(=O)O)cc1
2. CCCCCCCCCCCC[N+](C)(C)CCCCCCCCCCCC
3. CCCCCCOC(=O)c1ccc(O)cc1

1: inactive; 2: 50.7 µM (active); 3: inactive
